The measurements presented in this section are drawn from patent US20060154243A1.

# Test system: control serum Blood-bank (commercial negative donor pooled serum)
# Type: binding, human
Listing: Control serum Blood-bank linear peptides of selected sequences
Measured quantity: Control serum Blood-bank linear peptides

1. LIMLIIFWFSLEIQD = 0.9
2. WFSLEIQDLEEPCTK = 0.6
3. APHHVVAVIQEIQLL = 0.3
4. PHHVVAVIQEIQLLA = 0.4
5. AEAAVKPLLAPHHVV = 0.8
6. VKPLLAPHHVVAVIQ = 0.7
7. HVVAVIQEIQLLAAV = 0.4
8. EQHCQKASTQREAEA = 0.5
9. AFLLFLVLIMLIIFW = 0.8
10. ASTQREAEAAVKPLL = 0.5
11. HHVVAVIQEIQLLAA = 0.4
12. LLAAVGEILLLEWLA = 0.5
13. MNELTLIDFYLCFLA = 0.7
14. DFYLCFLAFLLFLVL = 0.7
15. LVLIMLIIFWFSLEI = 0.9
16. EILLLEWLAEVVKLP = 0.7
17. CYNFLKEQHCQKAST = 0.4
18. VAVIQEIQLLAAVGE = 0.3
19. PLLAPHHVVAVIQEI = 0.4
20. AAVKPLLAPHHVVAV = 1.0
21. STQREAEAAVKPLLA = 0.6
22. IDFYLCFLAFLLFLV = 0.9
23. CQKASTQREAEAAVK = 0.2
24. FLKEQHCQKASTQRE = 0.4
25. QEIQLLAAVGEILLL = 0.4
26. VVAVIQEIQLLAAVG = 1.1
27. QHCQKASTQREAEAA = 0.4
28. QLLAAVGEILLLEWL = 0.4
29. EAEAAVKPLLAPHHV = 0.4
30. MLPPCYNFLKEQHCQ = 0.4
31. GEILLLEWLAEVVKL = 0.6
32. FLLFLVLIMLIIFWF = 0.9
33. LKEQHCQKASTQREA = 0.3
34. FSLEIQDLEEPCTKV = 0.7
35. MLIIFWFSLEIQDLE = 1.0
36. ILLLEWLAEVVKLPS = 0.6
37. EIQLLAAVGEILLLE = 0.4
38. VGEILLLEWLAEVVK = 0.5
39. NFLKEQHCQKASTQR = 0.5
40. IMLIIFWFSLEIQDL = 0.8
41. FYLCFLAFLLFLVLI = 0.8
42. LTLIDFYLCFLAFLL = 0.9
43. AVKPLLAPHHVVAVI = 0.7
44. LLFLVLIMLIIFWFS = 0.9
45. FLAFLLFLVLIMLII = 0.7
46. LCFLAFLLFLVLIML = 0.7
47. LAAVGEILLLEWLAE = 0.4
